Taken from ChEMBL document CHEMBL4251572.

Test system: Escherichia coli
Assay: Antibacterial activity against Escherichia coli DH52 after 24 hrs by micro broth dilution assay
Assay type: functional
Settings: DH52, 24 h
Recorded Endpoint: MIC (µg/mL)
Express the result in µg/mL but write the number alone.

[Q] Look up MIC: `Cc1ccc(-c2cc(-c3nc4ccccc4[nH]3)nc(N)n2)cc1`
[A] 1

[Q] For the molecule `CCCCCCCCn1c(-c2cc(-c3ccc(Cl)cc3)nc(N)n2)nc2ccccc21` , what MIC is on record?
[A] 512

[Q] Sample `CCCCCCCn1c(-c2cc(-c3ccc(Cl)cc3Cl)nc(N)n2)nc2ccccc21` — what was its MIC?
[A] 32

[Q] # input molecule: `O=C(/C=C/c1ccc(Cl)cc1)c1nc2ccccc2[nH]1` ; wanted: its MIC
[A] 8

[Q] What value of measured MIC is listed for `CCCCCCCn1c(C(=O)/C=C/c2ccc(C)cc2)nc2ccccc21` ?
[A] 512

[Q] Which measured MIC value corresponds to `CCCCCCn1c(-c2cc(-c3ccc(Cl)cc3)nc(N)n2)nc2ccccc21` ?
[A] 2

[Q] Consider the molecule shown here: `CCCCCCCCn1c(C(=O)/C=C/c2ccc(C)cc2)nc2ccccc21` What is its recorded MIC?
[A] 512

[Q] Any idea what MIC was measured for `CCn1cc(C(=O)O)c(=O)c2cc(F)c(N3CCNCC3)cc21` ?
[A] 1

[Q] Item `CCCCCCCn1c(-c2cc(-c3ccc(F)cc3)nc(N)n2)nc2ccccc21` has what recorded MIC?
[A] 16

[Q] # MIC lookup, item `CCCCCCCCn1c(C(=O)/C=C/c2ccc(Cl)cc2Cl)nc2ccccc21`
[A] 512
